# Lookup of reported pEC50 keyed by entry
Target: T1, human CD3εγ-Fc heterodimer (human)
T1 construct: also called human CD3 εγ protein; recombinant CD3 εγ protein
T1 chain 1: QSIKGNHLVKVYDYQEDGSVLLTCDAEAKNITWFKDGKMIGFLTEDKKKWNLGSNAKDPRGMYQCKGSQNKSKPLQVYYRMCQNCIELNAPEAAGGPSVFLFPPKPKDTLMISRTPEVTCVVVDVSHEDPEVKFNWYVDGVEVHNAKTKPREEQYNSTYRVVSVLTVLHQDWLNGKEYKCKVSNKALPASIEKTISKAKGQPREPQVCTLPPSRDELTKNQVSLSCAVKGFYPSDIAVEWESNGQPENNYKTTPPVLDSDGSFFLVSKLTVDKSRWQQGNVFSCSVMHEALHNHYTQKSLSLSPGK
T1 chain 2: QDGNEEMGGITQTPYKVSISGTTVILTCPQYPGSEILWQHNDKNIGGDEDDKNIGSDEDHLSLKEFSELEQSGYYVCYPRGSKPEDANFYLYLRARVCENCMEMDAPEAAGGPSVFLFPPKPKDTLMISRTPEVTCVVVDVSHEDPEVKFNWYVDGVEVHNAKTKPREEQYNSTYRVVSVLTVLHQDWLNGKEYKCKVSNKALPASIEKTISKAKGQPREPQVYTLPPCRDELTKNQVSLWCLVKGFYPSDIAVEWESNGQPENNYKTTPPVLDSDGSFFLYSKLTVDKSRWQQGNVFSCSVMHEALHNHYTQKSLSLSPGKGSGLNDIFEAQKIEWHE
Assay: ELISA, coated human CD3εγ protein
pEC50: −log10 of the molar value.
measured_quantity: pEC50

| binder | measured_quantity | value_observed |
| --- | --- | --- |
| aCD3-hVH9/VL3 (antibody, V domains shown, Human IgG4, lambda) VH: EVQLVESGGGLVQPGGSLRLSCAASGFTFNTYAMNWVRKAPGKGLEWVGRIRSKYNNYATYYADSVKDRFTISRDDSKNSLYLQMNSLKTEDTAVYYCVRHGNFGNSYVSWFAYWGQGTLVTVSS VL: EAVVTQEPSLTVSPGGTVTLTCESSDGAVTTSNYANWVQEKPGQAPRGLIGGTNKEAPWTPARFSGSLLGGKAALTLSGAQPEDEAEYYCALWYSNLWVFGGGTKLTVL | pEC50 | 9.15 |
| aCD3-hVH9/VL2 (antibody, V domains shown, Human IgG4, lambda) VH: EVQLVESGGGLVQPGGSLRLSCAASGFTFNTYAMNWVRKAPGKGLEWVGRIRSKYNNYATYYADSVKDRFTISRDDSKNSLYLQMNSLKTEDTAVYYCVRHGNFGNSYVSWFAYWGQGTLVTVSS VL: QAVVTQEPSLTVSPGGTVTLTCRSSTGAVTTSNYANWVQEKPGQAPRGLIGGTNKRAPWTPARFSGSLLGGKAALTLSGAQPEDEAEYYCALWYSNLWVFGGGTKLTVL | pEC50 | 9.36 |
| aCD3-hVH1/VL5 (antibody, V domains shown, Humanized CD3 antibody with human IgG4 CH1-CH3 and a lambda light chain constant region) VH: EVQLVESGGGLVQPGGSLRLSCAASGFTFNTYAMNWVRQAPGKGLEWVSRIRSKYNNYATYYADSVKDRFTISRDDSKNTLYLQMNSLRAEDTAVYYCVRHGNFGNSYVSWFAYWGQGTLVTVSS VL: QAVVTQEPSLTVSPGGTVTLTCRSSTGAVTTSNYANWVQEKPGQAPRGLIGGTNKRAPWTPARFSGSLLGGKAALTITGAQAEDEAEYYCVLWYSNLWVFGGGTKLTVL | pEC50 | 9.22 |
